inhibition at 10 µM for assorted compounds
molecular target: AChE (Homo sapiens); assay: biochemical; conditions: 10^–5 M
Sequence (P22303 32-614): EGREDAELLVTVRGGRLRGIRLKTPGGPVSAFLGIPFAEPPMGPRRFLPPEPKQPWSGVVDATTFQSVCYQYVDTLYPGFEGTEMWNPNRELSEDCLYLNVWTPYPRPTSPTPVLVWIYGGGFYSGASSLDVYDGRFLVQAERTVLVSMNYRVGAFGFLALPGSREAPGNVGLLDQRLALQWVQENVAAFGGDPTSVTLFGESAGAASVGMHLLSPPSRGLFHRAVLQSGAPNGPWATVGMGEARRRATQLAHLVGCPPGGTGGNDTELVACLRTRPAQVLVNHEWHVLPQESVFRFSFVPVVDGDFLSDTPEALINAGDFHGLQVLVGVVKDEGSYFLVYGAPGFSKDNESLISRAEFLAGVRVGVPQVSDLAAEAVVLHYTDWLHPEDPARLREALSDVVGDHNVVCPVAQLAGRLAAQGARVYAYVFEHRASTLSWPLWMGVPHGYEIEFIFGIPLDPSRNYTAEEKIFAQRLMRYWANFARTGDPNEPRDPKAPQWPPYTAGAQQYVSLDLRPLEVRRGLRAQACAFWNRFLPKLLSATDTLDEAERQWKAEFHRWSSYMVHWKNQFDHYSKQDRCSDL
API: value field is a number in %; no unit string.

COc1cc2c(cc1OC)C(=O)/C(=C/c1ccc(NC(=O)CN(C)CCCN(C)C)cc1)C2 | 81.7

Query :: Request the reported inhibition at 10 µM associated with COc1ccc2c(c1)C/C(=C\c1ccc(NC(=O)CN3CCN(CCN(C)C)CC3)cc1)C2=O
Result :: 79

Query :: Note, next up: COc1cc2c(cc1OC)C(=O)/C(=C/c1ccc(NC(=O)CN(C)CCN(C)C)cc1)C2
Result :: 78.6

Query :: What do you have for COc1ccc2c(c1)C(=O)/C(=C/c1ccc(NC(=O)CN(C)CCN(C)C)cc1)C2 ?
Result :: 73.2

Query :: Also need COc1ccc2c(c1)C/C(=C\c1ccc(NC(=O)CN(C)CCCN(C)C)cc1)C2=O , thanks.
Result :: 83.5

Query :: // query: COc1ccc2c(c1)C/C(=C\c1ccc(NC(=O)CN3CCN(CCCN(C)C)CC3)cc1)C2=O
Result :: 71.1

Query :: Next: CCCN(C)CC(=O)Nc1ccc(/C=C2\Cc3cc(OC)ccc3C2=O)cc1
Result :: 92.8

Query :: Then this compound: COc1cc2c(cc1OC)C(=O)/C(=C/c1ccc(NC(=O)CN3CCN(CCCO)CC3)cc1)C2
Result :: 87.3

Query :: Next up: COc1ccc2c(c1)C(=O)/C(=C/c1ccc(NC(=O)CN(C)CCCN(C)C)cc1)C2
Result :: 81.6

* * *

biological target: MAO-B (Homo sapiens); test: In vitro MAO-B inhibition assay (fluorometric); format: biochemical; conditions: 10^–3 M
Sequence (P27338 whole entry): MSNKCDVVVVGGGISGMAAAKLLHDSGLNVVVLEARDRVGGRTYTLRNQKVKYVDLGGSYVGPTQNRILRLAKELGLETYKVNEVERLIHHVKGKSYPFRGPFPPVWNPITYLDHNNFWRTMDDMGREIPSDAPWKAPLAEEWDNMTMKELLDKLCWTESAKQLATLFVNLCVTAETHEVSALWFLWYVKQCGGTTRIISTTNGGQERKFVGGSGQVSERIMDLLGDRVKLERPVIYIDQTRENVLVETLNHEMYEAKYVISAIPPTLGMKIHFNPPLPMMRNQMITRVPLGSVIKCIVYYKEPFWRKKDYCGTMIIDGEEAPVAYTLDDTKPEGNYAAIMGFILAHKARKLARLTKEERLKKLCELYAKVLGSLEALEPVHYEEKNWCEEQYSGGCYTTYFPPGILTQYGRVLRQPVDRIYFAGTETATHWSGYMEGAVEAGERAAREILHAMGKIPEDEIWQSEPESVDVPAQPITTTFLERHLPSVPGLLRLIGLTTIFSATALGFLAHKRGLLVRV
Quick reference: inhibition at 1000 µM of the listed items.
Respond numerically; units are % and should not be typed.

Query :: Param item = COc1ccc2c(c1)C/C(=C\c1ccc(NC(=O)CN3CCN(CCCO)CC3)cc1)C2=O ; retrieve measured inhibition at 1000 µM.
Result :: 90.2

Query :: Same thing, different compound: COc1ccc2c(c1)C(=O)/C(=C/c1ccc(NC(=O)CN(C)CCCN(C)C)cc1)C2
Result :: 94.8

Query :: What would you report for COCCN1CCN(CC(=O)Nc2ccc(/C=C3\Cc4cc(OC)c(OC)cc4C3=O)cc2)CC1 ?
Result :: 80.2

Query :: Query C#CCN1CCN(CC(=O)Nc2ccc(/C=C3\Cc4cc(OC)ccc4C3=O)cc2)CC1 next
Result :: 69

Query :: Try the compound CCCN(C)CC(=O)Nc1ccc(/C=C2\Cc3cc(OC)ccc3C2=O)cc1
Result :: 92.6

Query :: Further, for C=CCN1CCN(CC(=O)Nc2ccc(/C=C3\Cc4cc(OC)ccc4C3=O)cc2)CC1 ?
Result :: 66.3

Query :: Next: C=CCN1CCN(CC(=O)Nc2ccc(/C=C3\Cc4cc(OC)c(OC)cc4C3=O)cc2)CC1
Result :: 58.6

Query :: Could you do the same for COc1cc2c(cc1OC)C(=O)/C(=C/c1ccc(NC(=O)CN(C)CCN(C)C)cc1)C2 , please?
Result :: 84.6

Query :: Now try C#CCN1CCN(CC(=O)Nc2ccc(/C=C3\Cc4ccc(OC)cc4C3=O)cc2)CC1 .
Result :: 79.6

Query :: Same for CCN1CCN(CC(=O)Nc2ccc(/C=C3\Cc4cc(OC)c(OC)cc4C3=O)cc2)CC1
Result :: 95.5

Query :: Entry to check: COc1cc2c(cc1OC)C(=O)/C(=C/c1ccc(NC(=O)CN(C)CCCN(C)C)cc1)C2
Result :: 95.3

Query :: Next compound up: CCN1CCN(CC(=O)Nc2ccc(/C=C3\Cc4cc(OC)ccc4C3=O)cc2)CC1
Result :: 77.1

Query :: Likewise for COc1ccc2c(c1)C/C(=C\c1ccc(NC(=O)CN(C)CCCN(C)C)cc1)C2=O ?
Result :: 98.4
